tested.target: T1, human EpCAM on cells (CHO-K1 cells transfected with human EpCAM; EpCAM+ tumour cell lines) (human, UniProt P16422 24-314)
T1 construct: whole, on cells; also called CHO-K1-huEpCAM cells; cell-surface EpCAM
T1 sequence (looked up): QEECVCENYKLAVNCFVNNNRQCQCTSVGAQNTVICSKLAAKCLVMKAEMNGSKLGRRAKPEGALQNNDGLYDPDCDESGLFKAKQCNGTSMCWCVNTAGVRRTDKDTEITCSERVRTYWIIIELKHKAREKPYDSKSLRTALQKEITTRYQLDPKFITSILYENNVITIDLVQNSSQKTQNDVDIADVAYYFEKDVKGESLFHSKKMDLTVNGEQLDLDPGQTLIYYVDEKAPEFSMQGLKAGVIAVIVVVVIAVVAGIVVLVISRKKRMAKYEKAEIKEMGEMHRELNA
measurement.notes: flow cytometry on CHO-K1 cells transfected with human EpCAM

binder: mAb-28 (chimeric anti-EpCAM antibody) (antibody, V domains shown) VH: QVQLQQSGAELARPGASVKVSCKASGYTFTSYGISWVKQRTGQGLEWIGEIYPTRDYTYYNENFKGKATLTADKSSTTAYMELRSLTSEDSAVYFCARDGPPFAYWGQGTLVTVSA VL: DIVMTQAAFSNPVTLGTSASISCRSSKSLLHSNGFTYLHWYLQKPGQSPQLLIYQMSSLASGVPDRFSSSGSGTDFTLRISRVEAEDVGVYYCAQNLELPRTFGGGTKLEIK
binding result: binds
//
binder: mAb-36 (chimeric anti-EpCAM antibody) (antibody, V domains shown) VH: QVQVQQSGPELVKPGTSVKISCKTSGYTFTDYYITWVKQRPGQGLEWIGWIFPGRGISFYNENFKDKATLTVDKSSNTAFMLLSSLTSEDSAVYFCARWGGTWFAYWGQGTLITVSA VL: EIVLTQSPAITAAFLGQKVTITCSASSSVSYIHWYQQKSDTSPKPWIYEISKLASGVPARFSGSGSGTSYSLTISSMEAEDAAIYYCQQWNYPLITFGGGTKLEIK
binding result: binds
//
binder: mAb-30 (chimeric anti-EpCAM antibody) (antibody, V domains shown) VH: EVQLQQSGPELVKPGASVKISCKASGYTFTDYYMSWVKQSHGRSLEWIGEINPDNGDTSHNQKFKGKATMTVDKSSGTGNMEIRSLTSEDAGIYYCTSYFSYWGQGTLVTVSA VL: DVLMTQSPLSLPVSLGDQASISCRSSQSIVDSDGSTYLEWYLQKPGQSPKLLIYKVSNRFSGVPDRFSGSGSGTDFTLKISGVEAEDLGVYYCFQGSHVPYTFGGGTKLEIK
binding result: binds
